Entries annotated with measured GI50
System: SK-OV-3 ovarian
TEST_METHOD_NOTES: NCI tumour cell line growth inhibition, 48 h
MEASURED_METRIC: GI50

• O=C1C[C@@H]2/C(=C(O)\C=C\c3ccccc3)C(=O)C=C[C@@H]2O1 = 4.86 µM
• O=C(/C=C/c1ccc(C(F)(F)F)cc1)c1ccc(Nc2nc(NCCO)nc(Nc3ccc(Cl)cc3)n2)cc1 = 13.4 µM
• CCN(CC)c1ccc(C(=O)c2ccc(N(CC)CC)cc2)cc1 = 0.676 µM

----------
Test system: HL-60(TB) leukemia
TEST_METHOD_NOTES: NCI tumour cell line growth inhibition, 48 h
MEASURED_METRIC: TGI

• COc1cc(CNNC(N)=S)cc(OC)c1OC = > 100 µM
• CO/N=C(\C)c1cccc(Nc2c3ccccc3nc3occc23)c1 = 13.6 µM
• Cc1ccccc1S(=O)(=O)Nn1cnc2ccc(S(=O)(=O)Nc3ccc(Cl)cc3)cc2c1=O = > 100 µM
• C=CCc1cccc2cc(C(=O)Nc3ccccn3)c(=N)oc12 = > 100 µM
• CC(C)NC(=O)CN1CCN(c2c(O)c3c(c(O)c2Cl)C(=O)C=CC3=O)CC1 = 0.642 µM
• N/C(=N\N=C\c1ccc2c(c1)OCCO2)NO = > 63.2 µM
• NCCCNCCCCNC(=O)C(O)NC(=O)CCCCCCN=C(N)N (centres undefined) = > 4090 µM
• O=C1C(c2c(O)[nH]c3ccc(Br)cc23)=Nc2ccccc21 = > 100 µM
• CC(=O)OCC1OC(n2c(-c3ccc(C)cc3)cc(-c3ccccc3)c(C#N)c2=O)C(OC(C)=O)C(OC(C)=O)C1OC(C)=O (centres undefined) = > 100 µM
• COc1cc(/C=c2\sc3n(c2=O)C(c2ccc(Cl)cc2)C2=C(CCCC2C)N=3)cc(OC)c1OC (centres undefined) = > 100 µM
• O=C(O)C1CC(O)CN1 (centres undefined) = > 100 µM
• COC(=O)c1ccccc1C1CN=NC12Cc1cc(C)ccc1C2=O (centres undefined) = > 100 µM
• Cc1ccc(S(=O)(=O)NNCNC(=O)c2ccccc2)cc1 = 48.2 µM
• COC(=O)C1(C)C=CC(=O)C2(C)C1C(O)C1OC3CC(c4ccoc4)C(C)=C3C1(C)C2CC(=O)O (centres undefined) = > 100 µM
